Reference source for all entries: patent US10792272B2

- System: C. difficile strains 630 (CD630) and 4118 (CD4118)
- procedure text: MIC / growth inhibition against C. difficile, covering both strains
- Assay type: cell-based, Clostridium difficile
- details: CD630 and CD4118
measured attribute: growth inhibitory activity against CD630 and CD4118 (in words)

1. O=C(Nc1ccc(Oc2ccccc2)cc1)c1cc(I)cc(I)c1O ... high in vitro potency
2. O=C(Nc1ccc(Oc2ccccc2)cc1)c1cc(I)cc(I)c1 ... inactive
3. Cc1ccc(Oc2ccc(NC(=O)c3cc(I)cc(I)c3O)cc2)cc1 ... high in vitro potency
4. O=C(Nc1ccc(Oc2ccc(Cl)cc2)cc1)c1cc(I)cc(I)c1O ... high in vitro potency
5. O=C(Nc1ccc2ccccc2c1)c1cc(I)cc(I)c1O ... high in vitro potency
6. COc1c(I)cc(I)cc1C(=O)Nc1ccc(Oc2ccccc2)cc1 ... inactive
7. COc1c(I)cc(I)cc1C(=O)Nc1ccc(Oc2ccc(Cl)cc2)cc1 ... inactive
8. COc1c(I)cc(I)cc1C(=O)Nc1ccc2ccccc2c1 ... inactive
9. CN(C(=O)c1cc(I)cc(I)c1O)c1ccc(Oc2ccccc2)cc1 ... inactive
10. O=C(Nc1ccc(Oc2ccc(F)cc2)cc1)c1cc(I)cc(I)c1O ... high in vitro potency
11. O=C(Nc1ccc2ccccc2c1)c1cc(I)cc(I)c1 ... inactive
12. O=C(Nc1ccc(Oc2ccc(Cl)cc2)cc1)c1cc(I)cc(I)c1 ... inactive

###

- System: S. aureus RN4220
- procedure text: MIC against aerobic bacteria
- Type: cell-based
- details: Staphylococcus aureus, RN4220; aerobic; read-out: MIC S. aureus RN4220
Reported MIC values for the following molecules.
measured attribute: MIC (µg/mL)

1) O=C(Nc1ccc(Oc2ccc(Cl)cc2)c(Cl)c1)c1cc(I)cc(I)c1O [Rafoxanide, rafoxanide, reference compound] ... 0.25
2) O=C(Nc1ccc(Oc2ccc(Cl)cc2)cc1)c1cc(Cl)cc(Cl)c1O ... 0.13
3) Cc1cc(C(C#N)c2ccc(Cl)cc2)c(Cl)cc1NC(=O)c1cc(I)cc(I)c1O (stereo not shown) [Closantel, reference compound] ... 0.25
